Value source: patent US8846739B2

# MEASURED_TARGET: h-TGR5 (Homo sapiens)
# ASSAY_DETAILS: TGR5 cAMP Assay using Cisbio cAMP Dynamic 2 htrf assay kit
# PARTICULARS: hTGR5CRE-luc HEK 293 cells
pEC50: −log10 of the molar value.
OBSERVABLE: pEC50

// below: answered molecules
1. COc1cc(C(C)(C)c2cnc(SCc3c(F)cc(S(=O)(=O)NCCC[n+]4ccn(C)c4)cc3Cl)n2-c2ccc(F)cc2)ccc1F [Compound 10, methanesulfonate]	> 7.00
2. COc1cc(C(C)(C)c2cnc(SCc3c(F)cc(S(=O)(=O)N(C)[C@H](CCC[N+](C)(C)C)C(=O)O)cc3F)n2-c2ccc(F)cc2)ccc1Cl [Compound 17c, 2,2,2-trifluoroacetate]	> 7.00

Parameters: items (list). Returns: pEC50 for each item.
1. COc1cc(-n2c(C(C)(C)c3ccc4onc(N)c4c3)cnc2SCc2c(F)cc(C(=O)N[C@H]3CC[N+](C)(C)C3)cc2F)ccc1F
2. COc1cc(C(C)(C)c2cnc(SCc3c(F)cc(C(=O)N[C@H]4CC[N+](C)(C)C4)cc3Cl)n2-c2ccc(F)cc2)ccc1Cl
3. COc1cc(C(C)(C)c2cnc(SCc3c(F)cc(C(=O)N[C@H]4CCC[N+](C)(C)C4)cc3Cl)n2-c2ccc(F)cc2)ccc1Cl
4. COc1cc(C(C)(C)c2cnc(SCc3c(F)cc(CCCC[N+](C)(C)C)cc3F)n2-c2ccc(F)cc2)ccc1Cl [Compound 19e, 2,2,2-trifluoroacetate]

Response:
1. > 7.00
2. > 7.00
3. > 7.00
4. > 7.00

* * *

# MEASURED_TARGET: h-TGR5 (Homo sapiens, UniProt Q8TDU6)
# ASSAY_DETAILS: TGR5 cAMP Assay using Cisbio cAMP Dynamic 2 htrf assay kit
# PARTICULARS: hTGR5CRE-luc HEK 293 cells
OBSERVABLE: EC50

Here are 3 compounds together with their reported answers.
1) COc1cc(C(C)(C)c2cnc(CCc3c(F)cc(S(=O)(=O)N(CCC[N+](C)(C)C)[C@H](C)C(=O)O)cc3Cl)n2-c2ccc(F)cc2)ccc1Cl [Compound 17m, 2,2,2-trifluoroacetate]	< 0.1 µM
2) COc1cc(C(C)(C)c2cnc(SCc3c(F)cc(S(=O)(=O)N(C)CCC[N+](C)(C)C)cc3F)n2-c2ccc(F)cc2)ccc1Cl [Compound 12a, 2,2,2-trifluoroacetate]	< 0.1 µM
3) COc1cc(C(C)(C)c2cnc(SCc3c(F)cc(S(=O)(=O)N(C)[C@@H](CCC[N+](C)(C)C)C(=O)O)cc3F)n2-c2ccc(F)cc2)ccc1Cl [Compound 16, 2,2,2-trifluoroacetate]	< 0.1 µM

For each entry beneath this line, provide reported EC50.
1. COc1cc(C(C)(C)c2cnc(SCc3cc(S(=O)(=O)NCCC[N+](C)(C)C)c(F)cc3Cl)n2-c2ccc(F)cc2)ccc1Cl [Example 7, 2,2,2-trifluoroacetate]
2. COc1cc(C(C)(C)c2cnc(SCc3c(F)cc(C(=O)NCC[N+]4(C)CC[N+](C)(C)CC4)cc3Cl)n2-c2ccc(F)cc2)ccc1Cl

Response:
["< 0.1 µM", "0.1 to 1 µM"]

* * *

Please respond with reported EC50 for every item in the list.
# MEASURED_TARGET: human TGR5 (h-TGR5) (Homo sapiens, UniProt Q8TDU6)
# Sequence (Q8TDU6 1-330): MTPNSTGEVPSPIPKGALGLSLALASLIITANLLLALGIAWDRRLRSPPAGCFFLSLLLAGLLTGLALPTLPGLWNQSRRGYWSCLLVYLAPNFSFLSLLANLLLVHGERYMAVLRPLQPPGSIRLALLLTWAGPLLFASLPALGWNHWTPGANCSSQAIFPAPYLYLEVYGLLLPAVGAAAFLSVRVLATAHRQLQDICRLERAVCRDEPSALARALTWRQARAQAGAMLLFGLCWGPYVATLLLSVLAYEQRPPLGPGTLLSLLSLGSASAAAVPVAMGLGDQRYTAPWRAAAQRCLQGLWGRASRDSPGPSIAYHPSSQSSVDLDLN
# ASSAY_DETAILS: TGR5/CRE-Luciferase Assay
# PARTICULARS: HEK 293 hTGR5/CRE-Luc cells, 6 hours incubation, read-out: CRE-Luc Agonist (EC50)

Record excerpt, results attached:
1) COc1cc(C(C)(C)c2cnc(SCc3c(F)cc(S(=O)(=O)N(CCC[N+](C)(C)C)CCC[N+](C)(C)C)cc3F)n2-c2ccc(F)cc2)ccc1Cl [Example 6i]	100 to 1000 nM
2) COc1cc(C(C)(C)c2cnc(SCc3c(F)cc(S(=O)(=O)N(CCC[N+](C)(C)C)CC(=O)O)cc3Cl)n2-c2ccc(F)cc2)ccc1F [Compound 14n]	< 100 nM
3) COc1cc(C(C)(C)c2cnc(SCc3c(F)cc(S(=O)(=O)N(C)[C@H](CCC[N+](C)(C)C)C(=O)O)cc3F)n2-c2ccc(F)cc2)ccc1Cl [Compound 17c, 2,2,2-trifluoroacetate]	< 100 nM
4) COc1cc(-n2c(C(C)(C)c3ccc(Cl)c(Cl)c3)cnc2SCc2c(F)cc(C(=O)N[C@H]3CCC[N+](C)(C)C3)cc2Cl)ccc1F [Example 2o]	< 100 nM

I would be grateful if you could provide EC50 for each of the following entries.
1. COc1cc(C(C)(C)c2cnc(CCc3c(F)cc(C(=O)NCC[N+](C)(C)C)cc3Cl)n2-c2ccc(F)cc2)ccc1Cl [Example 1f]
2. COc1cc(C(C)(C)c2cnc(SCc3c(F)cc(S(=O)(=O)NCCC[N+](C)(C)C)cc3Cl)n2-c2ccc(F)cc2)ccc1F [Example 6a]

Response:
["< 100 nM", "< 100 nM"]
